testedOn: Alpha-glucosidase MAL12 (Saccharomyces cerevisiae S288c, UniProt P53341)
Sequence (P53341 whole entry): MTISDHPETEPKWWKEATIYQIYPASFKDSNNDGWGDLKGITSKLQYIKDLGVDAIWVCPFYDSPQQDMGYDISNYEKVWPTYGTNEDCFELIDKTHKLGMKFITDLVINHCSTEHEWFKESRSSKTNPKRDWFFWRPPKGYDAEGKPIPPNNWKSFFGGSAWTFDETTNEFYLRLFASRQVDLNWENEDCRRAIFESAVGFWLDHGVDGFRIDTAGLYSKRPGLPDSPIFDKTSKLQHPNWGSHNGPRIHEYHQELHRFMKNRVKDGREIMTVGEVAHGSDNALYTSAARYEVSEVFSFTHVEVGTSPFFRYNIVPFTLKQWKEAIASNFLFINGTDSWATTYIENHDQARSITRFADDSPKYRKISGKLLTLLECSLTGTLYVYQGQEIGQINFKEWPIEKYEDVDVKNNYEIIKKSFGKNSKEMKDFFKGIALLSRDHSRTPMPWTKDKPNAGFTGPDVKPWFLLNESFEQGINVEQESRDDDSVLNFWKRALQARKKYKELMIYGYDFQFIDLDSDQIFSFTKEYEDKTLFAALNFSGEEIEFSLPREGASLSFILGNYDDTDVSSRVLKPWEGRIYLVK
pIC50: −log10 of the molar value.
So basically: pIC50 at 4 or higher? That is 1 (yes). Lower than 4? That is 0 (no).

>>> print(df.to_string())
                                    compound      cat
 0  O=C(NC[C@@H]1O[C@H](CO)[C@@H](O)[C@H](O)[C@H]1O)c1ccccc1   0 (no)
 1  OC[C@H]1O[C@@H](CNCc2ccc(Cl)cc2Cl)[C@H](O)[C@@H](O)[C@@H]1O   0 (no)
 2  OC[C@H]1O[C@@H](CNCc2ccccc2)[C@H](O)[C@@H](O)[C@@H]1O  1 (yes)
 3  O=C(/C=C/c1ccc(O)cc1)NC[C@@H]1O[C@H](CO)[C@@H](O)[C@H](O)[C@H]1O  1 (yes)
 4  OC[C@H]1O[C@@H](CNCc2ccc(Cl)c(Cl)c2)[C@H](O)[C@@H](O)[C@@H]1O   0 (no)
 5  OC[C@H]1O[C@@H](CNCc2cccs2)[C@H](O)[C@@H](O)[C@@H]1O   0 (no)
 6  CC(=O)Oc1ccc(/C=C/C(=O)NC[C@@H]2O[C@H](CO)[C@@H](O)[C@H](O)[C@H]2O)cc1   0 (no)
 7  COc1ccc(CNC[C@@H]2O[C@H](CO)[C@@H](O)[C@H](O)[C@H]2O)cc1   0 (no)
 8  O=C(NC[C@@H]1O[C@H](CO)[C@@H](O)[C@H](O)[C@H]1O)c1cccs1   0 (no)
 9  O=C(NC[C@@H]1O[C@H](CO)[C@@H](O)[C@H](O)[C@H]1O)c1ccccc1O   0 (no)
10  O=C(NC[C@@H]1O[C@H](CO)[C@@H](O)[C@H](O)[C@H]1O)c1cccc([N+](=O)[O-])c1   0 (no)
11  O=C(NC[C@@H]1O[C@H](CO)[C@@H](O)[C@H](O)[C@H]1O)c1ccc(F)cc1   0 (no)
12  O=C(NC[C@@H]1O[C@H](CO)[C@@H](O)[C@H](O)[C@H]1O)c1ccc([N+](=O)[O-])cc1  1 (yes)
13  COc1ccc(C(C)NC[C@@H]2O[C@H](CO)[C@@H](O)[C@H](O)[C@H]2O)cc1O (stereo not given in full)   0 (no)
14  OC[C@H]1O[C@@H](CNCc2ccccc2O)[C@H](O)[C@@H](O)[C@@H]1O   0 (no)

----------
Consider the following compounds and their measured IC50 readings.
testedOn: Sucrase-isomaltase, intestinal (Rattus norvegicus, UniProt P23739)
Sequence (P23739 1-1013 limits assumed): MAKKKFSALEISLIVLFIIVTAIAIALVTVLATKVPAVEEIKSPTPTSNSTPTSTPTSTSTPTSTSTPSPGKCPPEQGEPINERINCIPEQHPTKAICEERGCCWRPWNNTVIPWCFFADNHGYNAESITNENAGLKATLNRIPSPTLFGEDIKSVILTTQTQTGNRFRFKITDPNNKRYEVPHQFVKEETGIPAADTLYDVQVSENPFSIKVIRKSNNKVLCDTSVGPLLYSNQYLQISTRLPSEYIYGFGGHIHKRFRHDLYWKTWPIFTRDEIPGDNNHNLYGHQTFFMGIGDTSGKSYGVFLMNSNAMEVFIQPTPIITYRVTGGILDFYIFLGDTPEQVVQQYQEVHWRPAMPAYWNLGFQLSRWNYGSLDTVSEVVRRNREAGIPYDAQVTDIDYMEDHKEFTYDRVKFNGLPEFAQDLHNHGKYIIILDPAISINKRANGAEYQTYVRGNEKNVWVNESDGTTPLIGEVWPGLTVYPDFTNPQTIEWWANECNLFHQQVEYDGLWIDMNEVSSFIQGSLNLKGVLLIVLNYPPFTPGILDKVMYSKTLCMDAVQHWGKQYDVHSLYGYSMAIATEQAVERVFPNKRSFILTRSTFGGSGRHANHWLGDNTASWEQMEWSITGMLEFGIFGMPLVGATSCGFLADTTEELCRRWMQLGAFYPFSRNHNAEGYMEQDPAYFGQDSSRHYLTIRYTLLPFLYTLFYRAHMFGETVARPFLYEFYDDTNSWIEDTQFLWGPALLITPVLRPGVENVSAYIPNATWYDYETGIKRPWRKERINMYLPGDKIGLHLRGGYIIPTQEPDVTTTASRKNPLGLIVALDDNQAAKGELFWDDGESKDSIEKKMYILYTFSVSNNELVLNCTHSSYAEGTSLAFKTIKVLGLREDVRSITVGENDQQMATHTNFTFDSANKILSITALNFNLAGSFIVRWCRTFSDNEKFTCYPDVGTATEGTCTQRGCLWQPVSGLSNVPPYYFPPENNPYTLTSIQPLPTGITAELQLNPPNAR
Sequence (P23739 1014-1841 limits assumed): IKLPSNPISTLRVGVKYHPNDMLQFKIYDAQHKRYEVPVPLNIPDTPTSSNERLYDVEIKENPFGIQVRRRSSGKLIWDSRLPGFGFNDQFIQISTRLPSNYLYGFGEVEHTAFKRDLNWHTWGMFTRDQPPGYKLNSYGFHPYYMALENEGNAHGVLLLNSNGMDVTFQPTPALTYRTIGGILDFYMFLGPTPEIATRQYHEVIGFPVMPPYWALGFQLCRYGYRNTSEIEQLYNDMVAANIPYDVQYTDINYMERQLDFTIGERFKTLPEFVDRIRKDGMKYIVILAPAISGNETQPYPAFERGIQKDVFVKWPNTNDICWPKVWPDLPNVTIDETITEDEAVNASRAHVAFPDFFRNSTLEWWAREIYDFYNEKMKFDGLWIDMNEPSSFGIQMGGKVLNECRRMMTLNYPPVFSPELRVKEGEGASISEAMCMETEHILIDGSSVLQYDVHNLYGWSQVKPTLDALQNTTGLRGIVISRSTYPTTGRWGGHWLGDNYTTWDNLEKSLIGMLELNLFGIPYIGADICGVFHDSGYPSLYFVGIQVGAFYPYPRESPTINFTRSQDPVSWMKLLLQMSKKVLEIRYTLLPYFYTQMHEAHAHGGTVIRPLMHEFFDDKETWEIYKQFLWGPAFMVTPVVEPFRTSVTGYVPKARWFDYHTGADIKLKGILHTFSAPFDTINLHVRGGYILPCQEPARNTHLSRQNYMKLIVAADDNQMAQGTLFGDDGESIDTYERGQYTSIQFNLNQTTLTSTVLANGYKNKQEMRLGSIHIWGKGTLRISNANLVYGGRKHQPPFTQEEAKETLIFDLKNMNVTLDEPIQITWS
reportedMetric: IC50 (µM)

>>> print(df.to_string())
                                 smilesentry  inequalitysign  recordedresult
 0  O=C(NC[C@@H]1O[C@H](CO)[C@@H](O)[C@H](O)[C@H]1O)c1cccc([N+](=O)[O-])c1               =             381
 1  O=[N+]([O-])c1cccc(CNC[C@@H]2O[C@H](CO)[C@@H](O)[C@H](O)[C@H]2O)c1               =             627
 2  COc1cc(/C=C/C(=O)NC[C@@H]2O[C@H](CO)[C@@H](O)[C@H](O)[C@H]2O)ccc1O               =             253
 3  OC[C@H]1O[C@@H](CNCc2ccccc2O)[C@H](O)[C@@H](O)[C@@H]1O               =             181
 4  COc1cc(CNC[C@@H]2O[C@H](CO)[C@@H](O)[C@H](O)[C@H]2O)ccc1O               =             186
 5  Cc1ccc(S(=O)(=O)NC[C@@H]2O[C@H](CO)[C@@H](O)[C@H](O)[C@H]2O)cc1               =            1420
 6  O=C(NC[C@@H]1O[C@H](CO)[C@@H](O)[C@H](O)[C@H]1O)c1ccc(O)cc1               =            1640
 7  O=C(NC[C@@H]1O[C@H](CO)[C@@H](O)[C@H](O)[C@H]1O)c1ccc(F)cc1               =             403
 8  O=C(NC[C@@H]1O[C@H](CO)[C@@H](O)[C@H](O)[C@H]1O)c1ccccc1O               >            2000
 9  O=C(/C=C/c1ccc(O)cc1)NC[C@@H]1O[C@H](CO)[C@@H](O)[C@H](O)[C@H]1O               =             405
10  OC[C@H]1O[C@@H](CNCc2ccc(F)cc2)[C@H](O)[C@@H](O)[C@@H]1O               =             301
